This listing pairs molecules with measured IC50.
EXPERIMENTAL_SYSTEM: GST-bound ER alpha ligand-binding domain (LBD) (Homo sapiens (Human), UniProt P03372)
Sequence (P03372 whole entry, looked up, the tested form may be a part): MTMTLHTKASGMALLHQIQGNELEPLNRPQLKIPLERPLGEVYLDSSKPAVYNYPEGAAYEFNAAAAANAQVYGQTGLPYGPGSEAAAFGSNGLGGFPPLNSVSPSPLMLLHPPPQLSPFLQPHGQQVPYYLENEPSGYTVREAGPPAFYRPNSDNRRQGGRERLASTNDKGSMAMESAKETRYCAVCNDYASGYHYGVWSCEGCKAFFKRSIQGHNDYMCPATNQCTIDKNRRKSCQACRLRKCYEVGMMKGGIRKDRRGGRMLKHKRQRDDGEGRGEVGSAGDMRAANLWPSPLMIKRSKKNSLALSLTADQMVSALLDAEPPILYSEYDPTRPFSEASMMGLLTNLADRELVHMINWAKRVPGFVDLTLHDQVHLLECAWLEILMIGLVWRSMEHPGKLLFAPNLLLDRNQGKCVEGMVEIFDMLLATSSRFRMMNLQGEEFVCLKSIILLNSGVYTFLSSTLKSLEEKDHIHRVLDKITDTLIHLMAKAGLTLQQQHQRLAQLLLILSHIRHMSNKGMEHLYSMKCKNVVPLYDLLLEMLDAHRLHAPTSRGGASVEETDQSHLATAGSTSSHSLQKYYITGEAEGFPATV
PROCEDURE_SUMMARY: biochemical
TEST_CONDITIONS: TR-FRET, beta-estradiol 4 nM as agonist; read-out: Binding Assay, IC50 ERα

Known IC50 results, listed for orientation:
- Cc1ccc(/C(=C(\CCCO)c2ccccc2)c2ccc(N3CCN(C)CC3)cc2)cc1 [Compound 18f]: > 10 µM
- CC(C)N1CCN(c2ccc(/C(=C(/CCCO)c3ccccc3)c3ccc(Br)cc3)cc2)CC1 [Compound 18e]: > 10 µM

As a next step, examine the molecule that follows.
Qu. IC50 for Cc1ccc(/C(=C(\CCCO)c2ccccc2)c2ccc(N3CCNCC3)cc2)cc1 [Compound 20b] ?
Ans. > 10 µM
